List of IC50 values.
# System Tested: Kv1.3 potassium channel (Homo sapiens)
# Construct: expressed in transfected cells
# Sequence (P22001 whole entry): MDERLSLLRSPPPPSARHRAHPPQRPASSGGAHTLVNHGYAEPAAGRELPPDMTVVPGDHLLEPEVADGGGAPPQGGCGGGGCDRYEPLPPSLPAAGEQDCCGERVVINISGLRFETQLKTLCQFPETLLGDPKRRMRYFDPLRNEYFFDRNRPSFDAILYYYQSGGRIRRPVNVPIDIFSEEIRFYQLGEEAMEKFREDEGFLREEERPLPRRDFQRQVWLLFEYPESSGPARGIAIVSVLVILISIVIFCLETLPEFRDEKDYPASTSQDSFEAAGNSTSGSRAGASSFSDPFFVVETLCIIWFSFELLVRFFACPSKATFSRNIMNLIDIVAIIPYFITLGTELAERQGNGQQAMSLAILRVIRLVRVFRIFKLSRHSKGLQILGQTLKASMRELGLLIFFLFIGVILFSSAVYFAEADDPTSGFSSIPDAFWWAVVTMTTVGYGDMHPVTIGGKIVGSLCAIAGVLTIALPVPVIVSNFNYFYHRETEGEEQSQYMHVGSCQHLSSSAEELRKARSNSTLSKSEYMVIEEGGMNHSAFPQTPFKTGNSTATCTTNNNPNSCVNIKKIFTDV
# Protocol Description: Kv1.3 potassium channel blocker activity, automated whole-cell patch clamp (Patchliner) in CHO-K1 cells stably expressing Kv1.3
# Format: cell-based
# Measurement Setup: CHO-K1 cells stably expressing Kv1.3; patch clamp, current inhibition; read-out: Kv1.3 IC50
Endpoint: IC50

# Molecule, Endpoint, Recorded Result
data = [
    ("NC1CCN(c2cc(Cl)c(Cl)cc2O)CC1", "IC50", "< 1000 nM"),
    ("O=S(=O)(NCC1CC(c2c(O)ccc(Cl)c2Cl)CCN1)c1cccnc1 (centres unmarked)", "IC50", "< 1000 nM"),
    ("O=C(NC1CNC1)[C@H]1CC[C@H](c2c(O)ccc(Cl)c2Cl)N1 (single isomer, unassigned)", "IC50", "< 1000 nM"),
    ("Oc1cc(Cl)c(Cl)cc1N1CCCNCC1", "IC50", "< 10000 nM"),
    ("Oc1ccc(Cl)c(Cl)c1C1CCNC(c2cn[nH]c2)C1 (centres unmarked)", "IC50", "< 1000 nM"),
]

Recorded values, source patent US20230026611A1.
